Cited source: the supplement of paper PMC10338343

// reported pre-steady-state target cleavage rate per item
tested on: EfPiwi piRISC loaded with L1MC piRNA (26 nt); test: pre-steady-state target cleavage rate (min^-1); auxiliary factor: 500 nM Ephydatia muelleri Gtsf1; guide: L1MC piRNA 5'p-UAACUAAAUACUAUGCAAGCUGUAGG; MIWI and MILI are mouse PIWI proteins and EfPiwi is from a freshwater sponge; tags in brackets are library labels; higher = faster piRNA-guided slicing of the target

{"biopolymer sequence": "UCCUGGAUCAGCUUGCAUCGUAUUUAGUUA", "target entity": "EfPiwi piRISC loaded with L1MC piRNA (26 nt)", "pre-steady-state target cleavage rate": 0.00918}
{"biopolymer sequence": "UCCUGGAAGAGCUUGCAUAGAAUUUAGUUA", "target entity": "EfPiwi piRISC loaded with L1MC piRNA (26 nt)", "pre-steady-state target cleavage rate": 0.00403}
{"biopolymer sequence": "UCCUCCUACAGCUUGCAUUGUAUAUAGUUA", "target entity": "EfPiwi piRISC loaded with L1MC piRNA (26 nt)", "pre-steady-state target cleavage rate": 0.00608}
{"biopolymer sequence": "UCCUGCUUACAGCUUGCAUAGUAUUUAGUUA", "target entity": "EfPiwi piRISC loaded with L1MC piRNA (26 nt)", "pre-steady-state target cleavage rate": 0.0638}
{"biopolymer sequence": "UCCUGCUACAGCUUGCAUAGUAUUUAUUUA", "target entity": "EfPiwi piRISC loaded with L1MC piRNA (26 nt)", "pre-steady-state target cleavage rate": 0.0055}
{"biopolymer sequence": "UCCUGGAACAGCUUGCAUAGUAUUGAGUUA", "target entity": "EfPiwi piRISC loaded with L1MC piRNA (26 nt)", "pre-steady-state target cleavage rate": 0.00624}
{"biopolymer sequence": "UCCUGGAUGUACUUGCAUAGUAUUUAGUUA", "target entity": "EfPiwi piRISC loaded with L1MC piRNA (26 nt)", "pre-steady-state target cleavage rate": 0.00383}
